test: in vivo; conditions: male, Wistar, rat, po, 100 mg/kg

# COMPOUND, UNIT, Tmax
measured = [
    ("CC(CCC1(O)OC2CC3C4CCC5CC(OC6OC(CO)C(O)C(O)C6OC6OC(CO)C(O)C(O)C6O)CCC5(C)C4CCC3(C)C2C1C)COC1OC(CO)C(O)C(O)C1O (stereo not shown)", "h", 2),
]

* * *

experiment: PK in portal vein plasma of Wistar rats (before hepatic clearance); conditions: male, Wistar, rat, po, 100 mg/kg

# COMPOUND, AUC
rows = [
    ("COc1ccc2cc3[n+](cc2c1O)CCc1cc2c(cc1-3)OCO2 [M1, Berberrubine]", "106 ng·h/mL"),
    ("COc1ccc2cc3[n+](cc2c1OC)CCc1cc2c(cc1-3)OCO2 [BBR, berberine]", "424 ng·h/mL"),
]

* * *

Collected AUC values appear next to each entry.
Test: PK in systemic plasma of GK rats after repeated oral administration (day 35)
Type: in vivo, rat
Conditions: male, GK, rat, systemic plasma, po, 66.7 mg/kg, GK rats, systemic plasma, day 35, oral BBR 66.7 mg/kg alone; mean ± SE, n = 8; read-out: AUC
Description: Analyses were performed on a Shimadzu LCMS-8030 triple quadrupole system (Shimadzu Corp., Japan) equipped with an electrospray ionization source. Data processing was performed using Shimadzu LC–MS LabSolutions (version 5.42 SP4, Shimadzu, Japan). […] Food consumption and body weight were measured every week throughout the experimental periods. […] The significance of PK parameters in normal rats, generated by the sparse method in WinNonlin, was assessed with Welch’s unequal variances t-test. […]

# CHEM_SMILES, AUC
measured = [
    ("COc1ccc2cc3[n+](cc2c1O)CCc1cc2c(cc1-3)OCO2", "56.3 ng·h/mL"),
    ("COc1ccc2cc3[n+](cc2c1OC)CCc1cc2c(cc1-3)OCO2", "74.8 ng·h/mL"),
]

* * *

assay: Liver distribution in Wistar rats; details: Wistar rats, liver, single oral BBR 66.7 mg/kg alone, n = 5
Collected AUC ± SE values appear next to each entry.

# MOLECULE, UNIT, AUC ± SE
data = [
    ("COc1cc2c(cc1O)-c1cc3ccc(OC)c(OC)c3c[n+]1CC2 [M5, columbamine]", "h ∗ ng/g", 362.8),
    ("COc1ccc2cc3[n+](cc2c1O)CCc1cc2c(cc1-3)OCO2 [M1, Berberrubine]", "h ∗ ng/g", 932.5),
    ("COc1ccc2cc3[n+](cc2c1OC)CCc1cc2c(cc1-3)OCO2 [BBR, berberine]", "h ∗ ng/g", 3255.1),
    ("COc1cc2c(cc1O)CC[n+]1cc3c(OC)c(OC)ccc3cc1-2 [M4, jatrorrhizine]", "h ∗ ng/g", 527.5),
    ("COc1c(O)ccc2cc3[n+](cc12)CCc1cc2c(cc1-3)OCO2 [M2, Thalifendine]", "h ∗ ng/g", 5935.8),
    ("COc1ccc2cc3[n+](cc2c1OC)CCc1cc(O)c(O)cc1-3 [M3, demethyleneberberine]", "h ∗ ng/g", 234.5),
]

* * *

Collected exposure (AUC) of metabolite as share of the exposure of BBR values appear next to each entry.
test: Liver distribution in Wistar rats; settings: Wistar rats, liver, single treatment (On TB-2 treatments)
REPORTED_PROPERTY: exposure (AUC) of metabolite as share of the exposure of BBR (%)

# COMPOUND, EXPERIMENTAL_VALUE
measured = [
    ("COc1c(O)ccc2cc3[n+](cc12)CCc1cc2c(cc1-3)OCO2 [M2, Thalifendine]", 182),
    ("COc1cc2c(cc1O)CC[n+]1cc3c(OC)c(OC)ccc3cc1-2 [M4, jatrorrhizine]", 16),
    ("COc1ccc2cc3[n+](cc2c1OC)CCc1cc(O)c(O)cc1-3 [M3, demethyleneberberine]", 7),
    ("COc1cc2c(cc1O)-c1cc3ccc(OC)c(OC)c3c[n+]1CC2 [M5, columbamine]", 11),
]

* * *

test: in vivo; details: male, Wistar, rat, po, 100 mg/kg

# MOLECULE, half-life / h
rows = [
    ("CC(CCC1(O)OC2CC3C4CCC5CC(OC6OC(CO)C(O)C(O)C6OC6OC(CO)C(O)C(O)C6O)CCC5(C)C4CCC3(C)C2C1C)COC1OC(CO)C(O)C(O)C1O (stereo not shown)", 22.8),
]

* * *

Collected Tmax values appear next to each entry.
experiment: PK in portal vein plasma of Wistar rats (before hepatic clearance); details: male, Wistar, rat, po, 66.7 mg/kg
REPORTED_PROPERTY: Tmax (h)

# CHEM_SMILES, UNIT, EXPERIMENTAL_VALUE
measured = [
    ("COc1ccc2cc3[n+](cc2c1O)CCc1cc2c(cc1-3)OCO2", "h", 6),
    ("COc1ccc2cc3[n+](cc2c1OC)CCc1cc2c(cc1-3)OCO2", "h", 2),
]

* * *

test: PK in systemic plasma of GK rats after repeated oral administration (day 35); format: in vivo, rat; conditions: male, GK, rat, systemic plasma, po, 33.3 mg/kg, GK rats, systemic plasma, day 35, oral BBR+TB-2 (66.7+33.3 mg/kg); mean ± SE, n = 8; read-out: AUC

# COMPOUND, AUC
records = [
    ("COc1ccc2cc3[n+](cc2c1O)CCc1cc2c(cc1-3)OCO2 [M1, Berberrubine]", "94.9 ng·h/mL"),
    ("COc1ccc2cc3[n+](cc2c1OC)CCc1cc2c(cc1-3)OCO2 [BBR, berberine]", "155 ng·h/mL"),
]

* * *

test: Liver distribution in Wistar rats; details: male, Wistar, rat, liver, po, 66.7 mg/kg, T1/2, Wistar rats, single oral BBR 66.7 mg/kg alone, n = 5
Collected half-life values appear next to each entry.
REPORTED_PROPERTY: half-life

# COMPOUND, EXPERIMENTAL_VALUE
measured = [
    ("COc1ccc2cc3[n+](cc2c1O)CCc1cc2c(cc1-3)OCO2 [M1, Berberrubine]", "4.6 h"),
    ("COc1cc2c(cc1O)-c1cc3ccc(OC)c(OC)c3c[n+]1CC2 [M5, columbamine]", "9.5 h"),
    ("COc1ccc2cc3[n+](cc2c1OC)CCc1cc(O)c(O)cc1-3 [M3, demethyleneberberine]", "18.5 h"),
    ("COc1c(O)ccc2cc3[n+](cc12)CCc1cc2c(cc1-3)OCO2 [M2, Thalifendine]", "6.8 h"),
    ("COc1cc2c(cc1O)CC[n+]1cc3c(OC)c(OC)ccc3cc1-2 [M4, jatrorrhizine]", "9.7 h"),
    ("COc1ccc2cc3[n+](cc2c1OC)CCc1cc2c(cc1-3)OCO2 [BBR, berberine]", "14.8 h"),
]

* * *

test: Liver distribution in Wistar rats; settings: Wistar rats, liver
Collected increase in AUC on co-administration vs single treatment values appear next to each entry.
REPORTED_PROPERTY: increase in AUC on co-administration vs single treatment (%)

# CHEM_SMILES, UNIT, EXPERIMENTAL_VALUE
rows = [
    ("COc1cc2c(cc1O)CC[n+]1cc3c(OC)c(OC)ccc3cc1-2", "%", 31),
    ("COc1ccc2cc3[n+](cc2c1O)CCc1cc2c(cc1-3)OCO2", "%", 282),
    ("COc1ccc2cc3[n+](cc2c1OC)CCc1cc(O)c(O)cc1-3", "%", 144),
    ("COc1cc2c(cc1O)-c1cc3ccc(OC)c(OC)c3c[n+]1CC2", "%", 35),
]

* * *

experiment: PK in systemic plasma of Wistar rats (after hepatic clearance) and liver extraction ratio; conditions: male, Wistar, rat, systemic plasma, po, 66.7 mg/kg

# CHEM_SMILES, UNIT, half-life
data = [
    ("COc1ccc2cc3[n+](cc2c1OC)CCc1cc2c(cc1-3)OCO2", "h", 1.9),
    ("COc1ccc2cc3[n+](cc2c1O)CCc1cc2c(cc1-3)OCO2", "h", 5.8),
]

* * *

assay: in vivo; details: male, Wistar, rat, po, 100 mg/kg

# COMPOUND, UNIT, half-life
data = [
    ("CC(CCC1(O)OC2CC3C4CCC5CC(OC6OC(CO)C(O)C(O)C6OC6OC(CO)C(O)C(O)C6O)CCC5(C)C4CCC3(C)C2C1C)COC1OC(CO)C(O)C(O)C1O (stereo not shown)", "h", 23.2),
]

* * *

Collected Cmax values appear next to each entry.
experiment: PK in systemic plasma of GK rats after repeated oral administration (day 35); format: in vivo, rat; conditions: male, GK, rat, plasma, po, 66.7 mg/kg, GK rats, systemic plasma, day 35, oral BBR 66.7 mg/kg alone; mean ± SE, n = 8
REPORTED_PROPERTY: Cmax (ng/mL)

# CHEM_SMILES, UNIT, EXPERIMENTAL_VALUE
rows = [
    ("COc1ccc2cc3[n+](cc2c1OC)CCc1cc2c(cc1-3)OCO2", "ng/mL", 5.3),
    ("COc1ccc2cc3[n+](cc2c1O)CCc1cc2c(cc1-3)OCO2", "ng/mL", 4.3),
]
